The compounds below have reported Ki for Mcl-1 (Homo sapiens (Human)).
Give bare numbers, in nM.

# example entries with known answers
| compound | unit.of.measurement | Ki |
| --- | --- | --- |
| C[C@@H]1[C@@H](C)C/C=C(\F)[C@H]([C@@H](O)COCC2CCOCC2)N2CC[C@H]2CN2C[C@@]3(CCCc4cc(Cl)ccc43)COc3ccc(cc32)C(=O)NS1(=O)=O [Compound 6] | nM | 0.053 |
| C[C@@H]1[C@@H](C)C/C=C(\F)C(C(O)COCC2CCOCC2)N2CC[C@H]2CN2C[C@@]3(CCCc4cc(Cl)ccc43)COc3ccc(cc32)C(=O)NS1(=O)=O (single isomer, unassigned) [Compound 5] | nM | 0.23 |
| C[C@@H]1[C@@H](C)C/C=C(\F)[C@H]([C@@H](C)O)N2CCC[C@H]2CN2C[C@@]3(CCCc4cc(Cl)ccc43)COc3ccc(cc32)C(=O)NS1(=O)=O [Compound 3] | nM | 1.56 |
| C[C@@H]1[C@@H](C)C/C=C(\F)[C@H]([C@@H](C)O)N2CC[C@H]2CN2C[C@@]3(CCCc4cc(Cl)ccc43)COc3ccc(cc32)C(=O)NS1(=O)=O [Compound 1] | nM | 0.326 |

Next item in the queue.
Input line: Give the measured Ki for C[C@H](O)[C@@H]1/C(F)=C/C[C@H](C)[C@@H](C)S(=O)(=O)NC(=O)c2ccc3c(c2)N(C[C@@H]2CCCN21)C[C@@]1(CCOc2cc(Cl)ccc21)CO3 [Compound 18]
Output line: 0.606

* * *

- study.target: Mcl-1 (Homo sapiens (Human), UniProt Q07820)
- Sequence (Q07820 whole entry): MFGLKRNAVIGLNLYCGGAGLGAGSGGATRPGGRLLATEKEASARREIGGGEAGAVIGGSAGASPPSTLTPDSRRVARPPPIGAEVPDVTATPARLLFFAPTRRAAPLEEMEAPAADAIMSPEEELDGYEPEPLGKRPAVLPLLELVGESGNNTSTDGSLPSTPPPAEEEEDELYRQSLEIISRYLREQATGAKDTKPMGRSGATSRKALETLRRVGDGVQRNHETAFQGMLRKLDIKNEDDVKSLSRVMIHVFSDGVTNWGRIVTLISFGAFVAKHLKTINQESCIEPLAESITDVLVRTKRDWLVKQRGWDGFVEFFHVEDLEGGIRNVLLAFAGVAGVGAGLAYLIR
endpoint: Ki
A complete answer gives the number followed by the unit.

| compound | Ki |
| --- | --- |
| C[C@@H]1[C@@H](C)C/C=C(\F)[C@H]([C@@H](O)Cn2cccn2)N2CC[C@H]2CN2C[C@@]3(CCCc4cc(Cl)ccc43)COc3ccc(cc32)C(=O)NS1(=O)=O [Compound 19] | 0.049 nM |
| COCCN(C)C[C@H](O)[C@H]1/C(F)=C/C[C@H](C)[C@@H](C)S(=O)(=O)NC(=O)c2ccc3c(c2)N(C[C@@H]2CCN21)C[C@@]1(CCCc2cc(Cl)ccc21)CO3 [Compound 29] | 0.044 nM |
| C[C@@H]1[C@@H](C)C/C=C(\F)[C@H]([C@@H](C)O)N2CCC[C@H]2CN2C[C@@]3(CCOc4cc(Cl)ccc43)COc3ccc(cc32)C(=O)NS1(=O)=O [Compound 17] | 2.41 nM |

# ---- query compound ----
Input line: Given C[C@@H]1[C@@H](C)C/C=C(\F)[C@@]2(COC(C)(C)OC[C@@H]2O)N2CC[C@H]2CN2C[C@@]3(CCCc4cc(Cl)ccc43)COc3ccc(cc32)C(=O)NS1(=O)=O [Compound 9] , respond with its Ki.
Output line: 0.04 nM

* * *

- System: MOLP-8 human multiple myeloma cell line
- assay.protocol: Caspase-Glo 3/7 apoptosis induction assay in MOLP-8 cells
- Assay type: cell-based
- condition.summary: Homo sapiens, MOLP-8; caspase-3/7 activation, 2 hours incubation at 37° C.; averaged over all runs on all batches; read-out: MOLP8 AC50
endpoint: log10 AC50 (log10 of the value in nM)
Each number you see is log10 of AC50, and the unit inside the log is nM.

Solved cases below.
| chem.smiles | log10 AC50 |
| --- | --- |
| C[C@@H]1[C@@H](C)C/C=C(\F)[C@H]([C@@H](O)CN(C)CCC2CCOCC2)N2CC[C@H]2CN2C[C@@]3(CCCc4cc(Cl)ccc43)COc3ccc(cc32)C(=O)NS1(=O)=O | 2.87 |
| C[C@@H]1[C@@H](C)C/C=C(\F)[C@H]([C@@H](C)O)N2CCC[C@H]2CN2C[C@@]3(CCCc4cc(Cl)ccc43)COc3ccc(cc32)C(=O)NS1(=O)=O | 2.34 |

Provide each entry's log10 AC50 from the list below.
1. C[C@@H]1[C@@H](C)C/C=C(\F)[C@H]([C@@H](O)COC2CCOCC2)N2CCC[C@H]2CN2C[C@@]3(CCCc4cc(Cl)ccc43)COc3ccc(cc32)C(=O)NS1(=O)=O
2. C[C@H](O)[C@H]1/C(F)=C/C[C@H](C)[C@@H](C)S(=O)(=O)NC(=O)c2ccc3c(c2)N(C[C@@H]2CCN21)C[C@@]1(CCCc2cc(Cl)ccc21)CO3
3. COCCOCCN(C)C[C@H](O)[C@H]1/C(F)=C/C[C@H](C)[C@@H](C)S(=O)(=O)NC(=O)c2ccc3c(c2)N(C[C@@H]2CCN21)C[C@@]1(CCCc2cc(Cl)ccc21)CO3
4. C[C@@H]1[C@@H](C)C/C=C(\F)[C@H]([C@@H](O)CN2CCOCC2)N2CCC[C@H]2CN2C[C@@]3(CCCc4cc(Cl)ccc43)COc3ccc(cc32)C(=O)NS1(=O)=O
5. C[C@@H]1[C@@H](C)C/C=C(\F)[C@@]2(COC(C)(C)OC[C@@H]2O)N2CC[C@H]2CN2C[C@@]3(CCCc4cc(Cl)ccc43)COc3ccc(cc32)C(=O)NS1(=O)=O
6. COC[C@H](OC)[C@@]1(COC)/C(F)=C/C[C@H](C)[C@@H](C)S(=O)(=O)NC(=O)c2ccc3c(c2)N(C[C@@H]2CCN21)C[C@@]1(CCCc2cc(Cl)ccc21)CO3
7. COCCN(CC1CCOCC1)C[C@H](O)[C@H]1/C(F)=C/C[C@H](C)[C@@H](C)S(=O)(=O)NC(=O)c2ccc3c(c2)N(C[C@@H]2CCN21)C[C@@]1(CCCc2cc(Cl)ccc21)CO3

Output line:
1: 2.43; 2: 2.09; 3: 2.97; 4: 2.38; 5: 1.81; 6: 2.70; 7: 1.56

Go through the list and state log10 AC50 for each entry.
1. CO[C@H](C)[C@H]1/C(F)=C/C[C@H](C)[C@@H](C)S(=O)(=O)NC(=O)c2ccc3c(c2)N(C[C@@H]2CCCN21)C[C@@]1(CCOc2cc(Cl)ccc21)CO3
2. C[C@@H]1[C@@H](C)C/C=C(\F)[C@H]([C@@H](C)O)N2CCC[C@H]2CN2C[C@@]3(CCOc4cc(Cl)ccc43)COc3ccc(cc32)C(=O)NS1(=O)=O
3. COC[C@]1([C@@H]2COC(C)(C)O2)/C(F)=C/C[C@H](C)[C@@H](C)S(=O)(=O)NC(=O)c2ccc3c(c2)N(C[C@@H]2CCN21)C[C@@]1(CCCc2cc(Cl)ccc21)CO3
4. C[C@@H]1[C@@H](C)C/C=C(\F)[C@H]([C@@H](C)O)N2CC[C@H]2CN2C[C@@]3(CCCc4cc(Cl)ccc43)COc3ccc(cc32)C(=O)NS1(=O)=O
5. COC[C@H](O)[C@@]1(COC)/C(F)=C/C[C@H](C)[C@@H](C)S(=O)(=O)NC(=O)c2ccc3c(c2)N(C[C@@H]2CCN21)C[C@@]1(CCCc2cc(Cl)ccc21)CO3

Output line:
[3.57, 3.53, 2.13, 2.06, 2.35]

// each listed compound needs a value for log10 AC50
1. C[C@@H]1[C@@H](C)C/C=C(\F)C2(COC(C)(C)OC2)N2CC[C@H]2CN2C[C@@]3(CCCc4cc(Cl)ccc43)COc3ccc(cc32)C(=O)NS1(=O)=O
2. C[C@@H]1[C@@H](C)C/C=C(\F)[C@H]([C@@H](O)Cn2cccn2)N2CC[C@H]2CN2C[C@@]3(CCCc4cc(Cl)ccc43)COc3ccc(cc32)C(=O)NS1(=O)=O

Output line:
[3.05, 2.10]
